Values were extracted from patent US20240116985A1.

Assay: CHI Log D procedure
Assay type: physicochemical
Settings: pH 7.4
QUANTITY: CHI Log D
Answer with a bare number; do not write a unit.

These recorded examples may help you get a feel for the data.
- MOLECULE: "CC(=O)N1CCC[C@]12CC=CCCCC1(CCCC=CCCCCCC[C@@](C)(C(=O)N[C@@H](Cc3ccsc3)C(=O)N[C@@H](Cc3csc4ccccc34)C(=O)N[C@@H](CCC(N)=O)C(N)=O)NC(=O)[C@H](CC(N)=O)NC(=O)[C@H](Cc3ccccc3)NC(=O)[C@H](C)NC(=O)[C@H](C)NC(=O)[C@H](CCC(=O)O)NC(=O)[C@H](CC(=O)O)NC1=O)NC(=O)[C@H](CC(C)(C)C)NC(=O)[C@H](CC(=O)O)NC2=O (stereo partly shown) [I-683]"
  CHI Log D: 2.44
- MOLECULE: "CC(=O)N1CCC[C@]12CC=CCCCC1(CCCC=CCCCCCC[C@@](C)(C(=O)N[C@@H](Cc3ccsc3)C(=O)N[C@@H](Cc3csc4ccccc34)C(=O)N[C@@H](CCC(N)=O)C(N)=O)NC(=O)[C@H](CC(N)=O)NC(=O)[C@H](Cc3ccccc3)NC(=O)[C@H](C)NC(=O)[C@H](C)NC(=O)[C@H](CCC(=O)O)NC(=O)[C@H](CC(=O)O)NC1=O)NC(=O)[C@H](C)NC(=O)[C@H](CC(=O)O)NC2=O (stereo partly shown) [I-518]"
  CHI Log D: 1.966
- MOLECULE: "CC(=O)N1CCC[C@]12CC=CCCCC1(CCCC=CCCCCCC[C@@](C)(C(=O)N[C@@H](Cc3ccccc3)C(=O)N[C@@H](C)C(=O)N[C@@H](CCC(N)=O)C(N)=O)NC(=O)[C@H](C(C)C)NC(=O)[C@H](Cc3ccccc3)NC(=O)[C@H](C)NC(=O)[C@H](C)NC(=O)[C@H](CC(=O)O)NC(=O)[C@H](CC(=O)O)NC1=O)NC(=O)[C@H](C)NC(=O)[C@H](CC(=O)O)NC2=O (stereo partly shown) [I-357]"
  CHI Log D: 1.852
- MOLECULE: "CC(=O)N1CCC[C@]12CC=CCCCC1(CCCC=CCCCCCC[C@@](C)(C(=O)N[C@@H](Cc3ccccc3)C(=O)N[C@@H](Cc3csc4ccccc34)C(=O)N[C@H](C(N)=O)[C@@H](C)O)NC(=O)[C@H](CC(N)=O)NC(=O)[C@H](Cc3ccccc3)NC(=O)[C@H](C)NC(=O)[C@H](C)NC(=O)[C@H](CCC(=O)O)NC(=O)[C@H](CC(=O)O)NC1=O)NC(=O)[C@H](CC(C)C)NC(=O)[C@H](CC(=O)O)NC2=O (stereo partly shown) [I-749]"
  CHI Log D: 2.472
- MOLECULE: "CC(=O)N[C@@H](Cc1ccccc1)C(=O)N[C@@H](CC(=O)O)C(=O)N[C@@H](C)C(=O)N[C@]1(C)CCCCCCC=CCOC(=O)N2CC[C@@](C(=O)N[C@@H](Cc3ccccc3)C(=O)N[C@@H](Cc3c[nH]c4ccccc34)C(=O)N[C@@H](CCC(N)=O)C(N)=O)(C2)NC(=O)[C@H](C(C)C)NC(=O)[C@H](Cc2ccccc2)NC(=O)[C@H](CC(=O)O)NC(=O)[C@H](C)NC(=O)[C@H](CC(=O)O)NC(=O)[C@H](CC(=O)O)NC1=O (single isomer, unassigned) [I-20]"
  CHI Log D: 0.935
- MOLECULE: "CC(=O)N1CCC[C@]12CC=CCCCC1(CCCC=CCCCCCC[C@@](C)(C(=O)N[C@@H](Cc3ccsc3)C(=O)N[C@@H](Cc3csc4ccccc34)C(=O)N[C@@H](CCC(N)=O)C(N)=O)NC(=O)[C@H](CCC(N)=O)NC(=O)[C@H](Cc3ccccc3)NC(=O)[C@H](C)NC(=O)[C@H](C)NC(=O)[C@H](CCC(=O)O)NC(=O)[C@H](CC(=O)O)NC1=O)NC(=O)[C@H](C)NC(=O)[C@H](CC(=O)O)NC2=O (stereo partly shown) [I-427]"
  CHI Log D: 1.985
- MOLECULE: "CC(=O)N1CCC[C@]12CC=CCCCC1(CCCC=CCCCCOC(=O)N3CC[C@@](C(=O)N[C@@H](Cc4ccsc4)C(=O)N[C@@H](Cc4csc5ccccc45)C(=O)N[C@@H](Cc4c[nH]cn4)C(=O)N[C@@H](C)C(N)=O)(C3)NC(=O)[C@H](CC(N)=O)NC(=O)[C@H](Cc3ccccc3)NC(=O)[C@H](C)NC(=O)[C@H](C)NC(=O)[C@H](CC(=O)O)NC(=O)[C@H](CC(=O)O)NC1=O)NC(=O)[C@H](CC(C)(C)C)NC(=O)[C@H](CC(=O)O)NC2=O (stereo partly shown) [I-827]"
  CHI Log D: 2.1
- MOLECULE: "CC(=O)N[C@@H](Cc1ccccc1)C(=O)N[C@@H](CC(=O)O)C(=O)N[C@@H](C)C(=O)N[C@]1(C)CCCCCCC=CCOC(=O)N2CC[C@@](C(=O)N[C@@H](Cc3ccccc3)C(=O)N[C@@H](Cc3c[nH]c4ccccc34)C(=O)N[C@@H](CCC(N)=O)C(N)=O)(C2)NC(=O)[C@H](C(C)C)NC(=O)[C@H](Cc2ccccc2)NC(=O)[C@H](C)NC(=O)[C@H](C)NC(=O)[C@H](CCC(=O)O)NC(=O)[C@H](CC(=O)O)NC1=O [I-4]"
  CHI Log D: 1.353

Which CHI Log D is listed for CC(=O)N1CCC[C@]12CC=CCCCC1(CCCC=CCCCCCC[C@@](C)(C(=O)N[C@@H](Cc3ccccc3)C(=O)N[C@@H](Cc3csc4ccccc34)C(=O)N[C@@H](CO)C(N)=O)NC(=O)[C@H](CC(N)=O)NC(=O)[C@H](Cc3ccccc3)NC(=O)[C@H](C)NC(=O)[C@H](C)NC(=O)[C@H](CCC(=O)O)NC(=O)[C@H](CC(=O)O)NC1=O)NC(=O)[C@H](CC(C)C)NC(=O)[C@H](CC(=O)O)NC2=O (stereo partly shown) [I-750] ? 2.441

What about this molecule? CC[C@H](C)[C@@H]1NC(=O)[C@H](CC(=O)O)NC(=O)[C@]2(CC=CCCCC3(CCCC=CCCCCCC[C@@](C)(C(=O)N[C@@H](Cc4ccccc4)C(=O)N[C@@H](Cc4csc5ccccc45)C(=O)N[C@@H](CCC(N)=O)C(N)=O)NC(=O)[C@H](CC(N)=O)NC(=O)[C@H](Cc4ccccc4)NC(=O)[C@H](C)NC(=O)[C@H](C)NC(=O)[C@H](CC(=O)O)NC(=O)[C@H](CC(=O)O)NC3=O)NC1=O)CCCN2C(C)=O (stereo partly shown) [I-467] 2.255
